protocolText: Pharmacokinetic test in rats, intravenous
Assay type: in vivo
cond: male, rat, in vivo; SD rats, intravenous 1.0 mg/kg, plasma; read-out: Apparent Distribution Volume Vss

| compound | unitTag | Vd |
| --- | --- | --- |
| CC(C)C(O/N=C(\C(=O)N[C@@H]1C(=O)N(OS(=O)(=O)O)C1(C)C)c1csc(N)n1)c1cc(=O)c(O)cn1O (stereo partly shown) [Compound 12] | L/kg | 0.3 |

====

Test system: Escherichia coli ATCC 35218
protocolText: MIC, broth microdilution, normal MH medium
Type: cell-based
cond: Escherichia coli, ATCC35218, quality control strain, read-out: Antibacterial activity MIC, Escherichia coli ATCC 35218
parameter: MIC

| molecule | assayResult |
| --- | --- |
| C[C@H](O/N=C(\C(=O)N[C@@H]1C(=O)N(OS(=O)(=O)O)C1(C)C)c1nc(N)sc1Cl)c1cc(=O)c(O)cn1O | < 0.03 µg/mL |
| CC(O/N=C(\C(=O)N[C@@H]1C(=O)N(OS(=O)(=O)O)C1(C)C)c1nc(N)sc1Cl)c1cc(=O)c(O)cn1O (some centres unmarked) | < 0.03 µg/mL |
| C[C@@H](O)[C@H]1C(=O)N2C(C(=O)O)=C(S[C@@H]3CN[C@H](C(=O)N(C)C)C3)[C@H](C)[C@H]12 [meropenem, reference compound] | 0.125 µg/mL |
| CC(C)[C@H](O/N=C(\C(=O)N[C@@H]1C(=O)N(OS(=O)(=O)O)C1(C)C)c1nc(N)sc1Cl)c1cc(=O)c(O)cn1O | < 0.03 µg/mL |
| CSCC(O/N=C(\C(=O)N[C@@H]1C(=O)N(OS(=O)(=O)O)C1(C)C)c1csc(N)n1)c1cc(=O)c(O)cn1O (some centres unmarked) | < 0.03 µg/mL |
| CC(C)C(O/N=C(\C(=O)N[C@@H]1C(=O)N(OS(=O)(=O)O)C1(C)C)c1csc(N)n1)c1cc(=O)c(O)cn1O (some centres unmarked) | < 0.03 µg/mL |
| CO/N=C(\C(=O)N[C@@H]1C(=O)N2C(C(=O)O)=CCS[C@H]12)c1csc(N)n1 [ceftizoxime sodium, reference compound] | 0.25 µg/mL |
| C[C@H]1[C@H](NC(=O)/C(=N\OC(C)(C)C(=O)O)c2csc(N)n2)C(=O)N1S(=O)(=O)O [aztreonam, reference compound] | 0.5 µg/mL |
